# target: Extracellular calcium-sensing receptor (Homo sapiens, UniProt P41180)
# experiment.description: Inhibition of intracellular calcium release in human TT cells containing calcium-sensing receptor by FLIPR
The reader will find reported log10 IC50 values listed item by item below.
measure.name: log10 IC50 (log10 of the value in nM)

given.smiles: CC(C)(Cc1ccc2ccccc2c1)NC[C@@H](O)[C@H]1CCCN1C(=O)c1cccc(C#N)c1
log10 IC50: 3.93
--
given.smiles: CC(C)(Cc1ccc(F)cc1)NC[C@@H](O)CSc1cccc(Cl)c1Cl
log10 IC50: 3.79
--
given.smiles: CC(C)(Cc1csc2ccccc12)NC[C@@H](O)[C@H]1CCCN1Cc1cccc(C#N)c1
log10 IC50: 3.00
--
given.smiles: CC(C)(Cc1ccc(F)cc1)NC[C@@H](O)COc1ccc(OC(F)(F)F)cc1
log10 IC50: 3.52
--
given.smiles: CC(C)(Cc1ccc2ccccc2c1)NC[C@@H](O)[C@H]1CCCN1Cc1cccc(-c2ccccc2)c1
log10 IC50: 3.39
--
given.smiles: N#Cc1c(Cl)cccc1OC[C@H](O)CNc1ccc2ccccc2c1
log10 IC50: 3.66
--
given.smiles: CC(C)(Cc1ccc2ccccc2c1)NC[C@@H](O)[C@H]1CCCN1Cc1cccc([N+](=O)[O-])c1
log10 IC50: 2.15
--
given.smiles: CC(C)(Cc1ccc2ccccc2c1)NC[C@@H](O)[C@H]1CCCN1Cc1ccccc1C#N
log10 IC50: 2.53

---

# target: Extracellular calcium-sensing receptor (Rattus norvegicus)
# Sequence (P48442 whole entry): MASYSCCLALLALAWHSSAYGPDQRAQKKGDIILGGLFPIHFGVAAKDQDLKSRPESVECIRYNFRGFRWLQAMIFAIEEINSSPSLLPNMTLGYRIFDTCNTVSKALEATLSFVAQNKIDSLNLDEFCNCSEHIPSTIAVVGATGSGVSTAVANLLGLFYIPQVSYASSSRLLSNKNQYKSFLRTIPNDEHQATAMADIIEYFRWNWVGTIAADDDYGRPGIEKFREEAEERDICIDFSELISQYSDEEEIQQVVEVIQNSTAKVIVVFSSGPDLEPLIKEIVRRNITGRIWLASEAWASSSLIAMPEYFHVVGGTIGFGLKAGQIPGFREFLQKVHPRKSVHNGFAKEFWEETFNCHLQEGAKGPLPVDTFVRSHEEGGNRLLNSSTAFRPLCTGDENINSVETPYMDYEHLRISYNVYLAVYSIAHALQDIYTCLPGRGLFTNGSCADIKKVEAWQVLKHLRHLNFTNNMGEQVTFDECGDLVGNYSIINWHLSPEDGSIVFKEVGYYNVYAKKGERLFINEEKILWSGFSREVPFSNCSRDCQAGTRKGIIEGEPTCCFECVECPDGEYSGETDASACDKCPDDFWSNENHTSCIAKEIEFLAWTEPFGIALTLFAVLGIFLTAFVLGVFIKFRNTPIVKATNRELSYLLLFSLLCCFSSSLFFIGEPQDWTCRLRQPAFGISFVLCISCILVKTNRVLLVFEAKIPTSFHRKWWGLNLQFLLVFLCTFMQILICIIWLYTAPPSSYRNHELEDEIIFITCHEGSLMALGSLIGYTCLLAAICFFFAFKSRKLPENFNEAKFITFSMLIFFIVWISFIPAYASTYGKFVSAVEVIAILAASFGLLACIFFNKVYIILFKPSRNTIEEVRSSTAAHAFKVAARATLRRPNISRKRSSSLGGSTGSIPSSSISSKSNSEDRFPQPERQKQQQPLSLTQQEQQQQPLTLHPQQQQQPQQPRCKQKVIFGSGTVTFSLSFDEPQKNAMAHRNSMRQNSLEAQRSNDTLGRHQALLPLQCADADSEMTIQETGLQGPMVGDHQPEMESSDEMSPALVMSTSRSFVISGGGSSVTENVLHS
# experiment.description: Inhibition of extracellular calcium-induced inositol triphosphate generation in rat MTC cells expressing calcium-sensing receptor
Reported IC50 by item:

given.smiles: CC(C)(Cc1ccc2ccccc2c1)NC[C@@H](O)COc1cccc(Cl)c1C#N
IC50: 0.53 µM
//
given.smiles: CC(C)(Cc1ccc2ccccc2c1)NC[C@@H](O)[C@H]1CCCN1Cc1cccc(F)c1O
IC50: 2.56 µM
//
given.smiles: CC(C)(Cc1ccc2ccccc2c1)NC[C@@H](O)[C@H]1CCCN1Cc1cccc(C#N)c1
IC50: 2.2 µM

---

# target: Extracellular calcium-sensing receptor (Homo sapiens, UniProt P41180)
# Sequence (P41180 whole entry): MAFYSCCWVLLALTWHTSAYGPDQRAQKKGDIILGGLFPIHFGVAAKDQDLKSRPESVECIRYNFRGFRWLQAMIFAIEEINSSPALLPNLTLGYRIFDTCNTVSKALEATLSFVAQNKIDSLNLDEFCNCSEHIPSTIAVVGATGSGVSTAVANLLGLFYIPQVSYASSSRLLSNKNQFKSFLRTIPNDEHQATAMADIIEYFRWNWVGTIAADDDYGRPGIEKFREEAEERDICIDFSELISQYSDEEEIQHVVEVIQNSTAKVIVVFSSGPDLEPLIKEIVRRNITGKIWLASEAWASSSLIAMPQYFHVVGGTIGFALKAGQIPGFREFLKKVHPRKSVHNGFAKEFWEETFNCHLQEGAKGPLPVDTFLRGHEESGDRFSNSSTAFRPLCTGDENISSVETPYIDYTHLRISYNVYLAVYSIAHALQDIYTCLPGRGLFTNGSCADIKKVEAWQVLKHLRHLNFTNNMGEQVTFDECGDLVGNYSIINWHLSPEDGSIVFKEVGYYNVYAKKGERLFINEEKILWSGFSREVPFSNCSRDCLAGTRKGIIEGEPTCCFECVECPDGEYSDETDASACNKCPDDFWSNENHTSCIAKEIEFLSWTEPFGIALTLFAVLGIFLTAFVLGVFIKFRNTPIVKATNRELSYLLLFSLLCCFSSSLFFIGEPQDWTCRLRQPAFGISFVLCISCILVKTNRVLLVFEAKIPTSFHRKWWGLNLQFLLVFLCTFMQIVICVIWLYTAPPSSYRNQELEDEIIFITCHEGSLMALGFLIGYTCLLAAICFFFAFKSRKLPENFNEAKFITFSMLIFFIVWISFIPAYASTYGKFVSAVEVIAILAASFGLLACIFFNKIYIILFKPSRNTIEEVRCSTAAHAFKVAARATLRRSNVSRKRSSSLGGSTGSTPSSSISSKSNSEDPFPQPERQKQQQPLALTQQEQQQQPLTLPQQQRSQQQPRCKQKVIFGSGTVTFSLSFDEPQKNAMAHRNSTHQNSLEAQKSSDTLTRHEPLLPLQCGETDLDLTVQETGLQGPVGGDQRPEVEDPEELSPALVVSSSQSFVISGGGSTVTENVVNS
# experiment.description: Inhibition of intracellular calcium release in human TT cells containing calcium-sensing receptor by FLIPR
Each record is given condition met if its reported IC50 is strictly below 0.2 µM. Records at or above 0.2 µM are given condition not met.

given.smiles: CC(C)(Cc1ccc2ccccc2c1)NC[C@@H](O)[C@H]1CCCN1Cc1cccc(Cl)c1C#N
target: Extracellular calcium-sensing receptor (Homo sapiens, UniProt P41180)
group.label: condition not met
//
given.smiles: CC(C)(Cc1ccc2ccccc2c1)NC[C@@H](O)[C@H]1CCCN1Cc1cccc(F)c1F
target: Extracellular calcium-sensing receptor (Homo sapiens, UniProt P41180)
group.label: condition not met
//
given.smiles: CC(C)(Cc1cc2ccccc2[nH]1)NC[C@H](O)COc1ccccc1C#N
target: Extracellular calcium-sensing receptor (Homo sapiens, UniProt P41180)
group.label: condition met
//
given.smiles: CC(C)(Cc1cc2ccccc2s1)NC[C@@H](O)[C@H]1CCCN1Cc1cccc(C#N)c1
target: Extracellular calcium-sensing receptor (Homo sapiens, UniProt P41180)
group.label: condition not met
//
given.smiles: N#Cc1c(Cl)cccc1OC[C@H](O)CNCCc1ccc2ccccc2c1
target: Extracellular calcium-sensing receptor (Homo sapiens, UniProt P41180)
group.label: condition not met
